Source: ChEMBL document CHEMBL2010675

// reported AUC per item
Tested on: Canis familiaris
run-description: AUC in dog at 4 mg/kg, po
Type: ADME, organism-based, Canis lupus familiaris, Plasma
Set-up: dose 4 mg/kg, route oral
run-conditions: in vivo

smi: CC[C@@H]1C[C@]1(NC(=O)[C@@H]1C[C@@H](Oc2cc(-c3csc(NC(C)C)n3)nc3c(Cl)c(OCCN4CCCCC4)ccc23)CN1C(=O)[C@@H](NC(=O)O[C@@H]1C[C@@H]2C[C@@H]2C1)C(C)(C)C)C(=O)O
result-units: µM·h
AUC: 19.7

smi: CC[C@@H]1C[C@]1(NC(=O)[C@@H]1C[C@@H](Oc2cc(-c3csc(NC(C)C)n3)nc3c(Cl)c(OCCN4CCOCC4(C)C)ccc23)CN1C(=O)[C@@H](NC(=O)O[C@@H]1C[C@@H]2C[C@@H]2C1)C(C)(C)C)C(=O)O
result-units: µM·h
AUC: 38.3

smi: CC[C@@H]1C[C@]1(NC(=O)[C@@H]1C[C@@H](Oc2cc(-c3csc(NC(C)C)n3)nc3c(Cl)c(OCCN4CCOCC4)ccc23)CN1C(=O)[C@@H](NC(=O)O[C@@H]1C[C@@H]2C[C@@H]2C1)C(C)(C)C)C(=O)O
result-units: µM·h
AUC: 21.8

smi: CC[C@@H]1C[C@]1(NC(=O)[C@@H]1C[C@@H](Oc2cc(-c3csc(NC(C)C)n3)nc3c(Cl)c(OCCN4CC[C@@H](OC)C4)ccc23)CN1C(=O)[C@@H](NC(=O)O[C@@H]1C[C@@H]2C[C@@H]2C1)C(C)(C)C)C(=O)O
result-units: µM·h
AUC: 8.33

* * *

Test system: Hepatitis C virus
run-description: Antiviral activity against Hepatitis C virus genotype 1b infected in human Huh cells by luciferase reporter gene based replicon assay
Assay type: functional, organism-based, Hepacivirus hominis
// reported EC50 per item

molecule: CC[C@@H]1C[C@]1(NC(=O)[C@@H]1C[C@@H](Oc2cc(-c3csc(NC(C)C)n3)nc3c(Cl)c(OC)ccc23)CN1C(=O)[C@@H](NC(=O)O[C@H]1C[C@@H]2[C@H](C1)C2(F)F)C(C)(C)C)C(=O)O
EC50: 5 nM
--
molecule: CC[C@@H]1C[C@]1(NC(=O)[C@@H]1C[C@@H](Oc2cc(-c3csc(NC(C)C)n3)nc3c(Cl)c(OC)ccc23)CN1C(=O)[C@@H](NC(=O)O[C@@H]1C[C@@H]2[C@H](C1)C2(F)F)C(C)(C)C)C(=O)O
EC50: 115 nM
--
molecule: CC[C@@H]1C[C@]1(NC(=O)[C@@H]1C[C@@H](Oc2cc(-c3csc(NC(C)C)n3)nc3c(Cl)c(OCCN4CC[C@@H](OC)C4)ccc23)CN1C(=O)[C@@H](NC(=O)O[C@@H]1C[C@@H]2C[C@@H]2C1)C(C)(C)C)C(=O)O
EC50: 3.8 nM
--
molecule: CC[C@@H]1C[C@]1(NC(=O)[C@@H]1C[C@@H](Oc2cc(-c3csc(NC(C)C)n3)nc3c(Cl)c(OCCN4CCOCC4)ccc23)CN1C(=O)[C@@H](NC(=O)O[C@@H]1C[C@@H]2C[C@@H]2C1)C(C)(C)C)C(=O)O [VEDROPREVIR]
EC50: 2 nM
--
molecule: CC[C@@H]1C[C@]1(NC(=O)[C@@H]1C[C@@H](Oc2cc(-c3csc(NC(C)C)n3)nc3c(Cl)c(OCCN4CCOCC4(C)C)ccc23)CN1C(=O)[C@@H](NC(=O)O[C@@H]1C[C@@H]2C[C@@H]2C1)C(C)(C)C)C(=O)O
EC50: 3.2 nM
--
molecule: CC[C@@H]1C[C@]1(NC(=O)[C@@H]1C[C@@H](Oc2cc(-c3csc(NC(C)C)n3)nc3c(Cl)c(OCCN4CCCCC4)ccc23)CN1C(=O)[C@@H](NC(=O)O[C@@H]1C[C@@H]2C[C@@H]2C1)C(C)(C)C)C(=O)O
EC50: 7.5 nM
--
molecule: CC[C@@H]1C[C@]1(NC(=O)[C@@H]1C[C@@H](Oc2cc(-c3csc(NC(C)C)n3)nc3c(Cl)c(OC)ccc23)CN1C(=O)[C@@H](NC(=O)O[C@@H]1C[C@@H]2C[C@@H]2C1)C(C)(C)C)C(=O)O
EC50: 9 nM

* * *

run-description: Oral bioavailability in dog at 4 mg/kg
Format: ADME, organism-based, Canis lupus familiaris
run-conditions: in vivo
measurement-name: bioavailability

smi: CC[C@@H]1C[C@]1(NC(=O)[C@@H]1C[C@@H](Oc2cc(-c3csc(NC(C)C)n3)nc3c(Cl)c(OCCN4CCOCC4)ccc23)CN1C(=O)[C@@H](NC(=O)O[C@@H]1C[C@@H]2C[C@@H]2C1)C(C)(C)C)C(=O)O
measurement-name: bioavailability
result: 142%
--
smi: CC[C@@H]1C[C@]1(NC(=O)[C@@H]1C[C@@H](Oc2cc(-c3csc(NC(C)C)n3)nc3c(Cl)c(OCCN4CC[C@@H](OC)C4)ccc23)CN1C(=O)[C@@H](NC(=O)O[C@@H]1C[C@@H]2C[C@@H]2C1)C(C)(C)C)C(=O)O
measurement-name: bioavailability
result: 45%
--
smi: CC[C@@H]1C[C@]1(NC(=O)[C@@H]1C[C@@H](Oc2cc(-c3csc(NC(C)C)n3)nc3c(Cl)c(OCCN4CCOCC4(C)C)ccc23)CN1C(=O)[C@@H](NC(=O)O[C@@H]1C[C@@H]2C[C@@H]2C1)C(C)(C)C)C(=O)O
measurement-name: bioavailability
result: 24%
--
smi: CC[C@@H]1C[C@]1(NC(=O)[C@@H]1C[C@@H](Oc2cc(-c3csc(NC(C)C)n3)nc3c(Cl)c(OCCN4CCCCC4)ccc23)CN1C(=O)[C@@H](NC(=O)O[C@@H]1C[C@@H]2C[C@@H]2C1)C(C)(C)C)C(=O)O
measurement-name: bioavailability
result: 32%

* * *

// reported half-life per item
run-description: Half life in dog at 1 mg/kg, iv
Assay type: ADME, organism-based, Canis lupus familiaris
Set-up: dose 1 mg/kg, route intravenous
run-conditions: in vivo
measurement-name: half-life (h)

smi: CC[C@@H]1C[C@]1(NC(=O)[C@@H]1C[C@@H](Oc2cc(-c3csc(NC(C)C)n3)nc3c(Cl)c(OCCN4CCOCC4)ccc23)CN1C(=O)[C@@H](NC(=O)O[C@@H]1C[C@@H]2C[C@@H]2C1)C(C)(C)C)C(=O)O
measurement-name: half-life
result-units: h
result-number: 4.2

smi: CC[C@@H]1C[C@]1(NC(=O)[C@@H]1C[C@@H](Oc2cc(-c3csc(NC(C)C)n3)nc3c(Cl)c(OCCN4CCOCC4(C)C)ccc23)CN1C(=O)[C@@H](NC(=O)O[C@@H]1C[C@@H]2C[C@@H]2C1)C(C)(C)C)C(=O)O
measurement-name: half-life
result-units: h
result-number: 5.8

smi: CC[C@@H]1C[C@]1(NC(=O)[C@@H]1C[C@@H](Oc2cc(-c3csc(NC(C)C)n3)nc3c(Cl)c(OCCN4CC[C@@H](OC)C4)ccc23)CN1C(=O)[C@@H](NC(=O)O[C@@H]1C[C@@H]2C[C@@H]2C1)C(C)(C)C)C(=O)O
measurement-name: half-life
result-units: h
result-number: 2.1

smi: CC[C@@H]1C[C@]1(NC(=O)[C@@H]1C[C@@H](Oc2cc(-c3csc(NC(C)C)n3)nc3c(Cl)c(OCCN4CCCCC4)ccc23)CN1C(=O)[C@@H](NC(=O)O[C@@H]1C[C@@H]2C[C@@H]2C1)C(C)(C)C)C(=O)O
measurement-name: half-life
result-units: h
result-number: 3

* * *

run-description: Plasma concentration in human at 300 mg after 24 hrs

molecule: CC[C@@H]1C[C@]1(NC(=O)[C@@H]1C[C@@H](Oc2cc(-c3csc(NC(C)C)n3)nc3c(Cl)c(OCCN4CCOCC4)ccc23)CN1C(=O)[C@@H](NC(=O)O[C@@H]1C[C@@H]2C[C@@H]2C1)C(C)(C)C)C(=O)O [VEDROPREVIR]
concentration at 24 h (nM): 400

* * *

run-description: Fraction unbound in human plasma
Format: ADME, cell-free

smi: CC[C@@H]1C[C@]1(NC(=O)[C@@H]1C[C@@H](Oc2cc(-c3csc(NC(C)C)n3)nc3c(Cl)c(OCCN4CCOCC4)ccc23)CN1C(=O)[C@@H](NC(=O)O[C@@H]1C[C@@H]2C[C@@H]2C1)C(C)(C)C)C(=O)O
fraction unbound: 0.026

* * *

run-description: Clearance in rat at 1 mg/kg, iv and 4 mg/kg, po
Assay type: ADME, organism-based
run-conditions: in vivo
measurement-name: clearance (mL/min/kg)

molecule: CC[C@@H]1C[C@]1(NC(=O)[C@@H]1C[C@@H](Oc2cc(-c3csc(NC(C)C)n3)nc3c(Cl)c(OCCN4CCOCC4)ccc23)CN1C(=O)[C@@H](NC(=O)O[C@@H]1C[C@@H]2C[C@@H]2C1)C(C)(C)C)C(=O)O [VEDROPREVIR]
result-number: 73.3
